Target: T1, EsCas13d, nuclease-dead (Eubacterium siraeum, UniProt B0MS50, R295A;H300A;R849A;H854A)
T1 sequence: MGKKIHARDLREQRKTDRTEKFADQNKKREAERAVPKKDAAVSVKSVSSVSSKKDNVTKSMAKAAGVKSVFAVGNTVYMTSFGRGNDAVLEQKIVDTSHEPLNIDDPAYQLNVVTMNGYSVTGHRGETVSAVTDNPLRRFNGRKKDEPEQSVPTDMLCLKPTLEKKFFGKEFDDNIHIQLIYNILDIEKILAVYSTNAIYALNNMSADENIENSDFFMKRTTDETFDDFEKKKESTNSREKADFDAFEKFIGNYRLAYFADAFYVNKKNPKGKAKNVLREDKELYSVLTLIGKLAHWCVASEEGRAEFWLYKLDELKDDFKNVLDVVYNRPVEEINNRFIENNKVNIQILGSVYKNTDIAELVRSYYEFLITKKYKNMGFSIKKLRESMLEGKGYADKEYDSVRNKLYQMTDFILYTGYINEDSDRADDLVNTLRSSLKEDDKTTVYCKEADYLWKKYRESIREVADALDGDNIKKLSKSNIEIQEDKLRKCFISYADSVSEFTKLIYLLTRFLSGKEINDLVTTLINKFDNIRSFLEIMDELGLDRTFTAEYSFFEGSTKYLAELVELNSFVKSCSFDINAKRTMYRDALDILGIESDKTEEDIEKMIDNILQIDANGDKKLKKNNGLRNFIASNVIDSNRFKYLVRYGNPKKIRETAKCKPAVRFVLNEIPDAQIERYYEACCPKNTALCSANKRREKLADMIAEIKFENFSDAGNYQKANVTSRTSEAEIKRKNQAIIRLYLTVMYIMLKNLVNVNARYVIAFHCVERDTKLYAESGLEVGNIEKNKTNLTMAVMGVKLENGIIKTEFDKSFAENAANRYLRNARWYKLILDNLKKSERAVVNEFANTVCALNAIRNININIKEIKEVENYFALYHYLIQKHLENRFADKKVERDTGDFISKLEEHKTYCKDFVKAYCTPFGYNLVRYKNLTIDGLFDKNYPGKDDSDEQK
Assay: crRNA (strand 1, pre-loaded); Mg2+; 40 mM Tris-HCl pH 7.5, 150 mM NaCl, 6 mM MgCl2, 1 mM DTT, 0.1% Tween-20, 0.2 mg/ml BSA; 25 C; 10 min per concentration, then washed
Details: tags: His6-TwinStrep-SUMO cleaved; N-terminal SNAP kept (SNAP-Surface 488); label: 3' end held by stalled T7 RNA polymerase
Listing of recorded pKd by entry.
Entry type: numeric. Quantity: pKd, the -log10 of concentration in molar units.

Would you please look over these solved cases?
>>> numeric_result("target 1 MT 5'PFS GUG 3'PFS AGU (mixed) RNA 1: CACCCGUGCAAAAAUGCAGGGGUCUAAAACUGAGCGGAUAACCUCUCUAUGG RNA 2: GGGAAUGGAUCCACAUCUACGAAUUCGUGCCAUAGAGAGGUUAUCCGCUCAAGUAGAUCGGAAGAGCACACGU")
7.94
>>> numeric_result("target 3 insG 3' of 5,insG 3' of 2 (mixed) RNA 1: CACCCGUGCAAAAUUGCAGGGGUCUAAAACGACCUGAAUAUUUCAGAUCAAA RNA 2: GGGAAUGGAUCCACAUCUACGAAUUCGUUUUUGAUCUGAAAUAUUCAGGGUGCUGCAGAUCGGAAGAGCACACGU")
7.58
>>> numeric_result("target 1 MT 5'PFS UAU 3'PFS UUC (mixed) RNA 1: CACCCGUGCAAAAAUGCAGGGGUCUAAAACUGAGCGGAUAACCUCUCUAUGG RNA 2: GGGAAUGGAUCCACAUCUACGAAUUCUAUCCAUAGAGAGGUUAUCCGCUCAUUCAGAUCGGAAGAGCACACGU")
7.65

Now for the binder whose pKd we want.
*Q* // returns reported pKd for input target 1 insG 3' of 1,insG 3' of 1 (mixed) RNA 1: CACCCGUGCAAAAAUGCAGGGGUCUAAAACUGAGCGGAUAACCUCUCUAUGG RNA 2: GGGAAUGGAUCCACAUCUACGAAUUCGUACCAUAGAGAGGUUAUCCGCUCAGGCCGAGAUCGGAAGAGCACACGU
*A* 8.07
